biological target: T1, GABARAP protein (recombinant) (UniProt O95166 1-117); assay: ITC; peptides at 0.35 mM titrated into 0.015 mM LC3 and GABARAP proteins in 21 steps; MicroCal VP-ITC; 25 °C and 35 °C (the LC3B titrations of Fig. 4a at 35 °C); 50 mM Na2HPO4, 100 mM NaCl, pH 7.0; one-site binding model; conditions: both partners purified
T1 construct: GABARAP, one of the six mATG8 proteins; CSPs were mapped on PDB 1GNU; source: unlabelled or 15N-labelled
T1 sequence (O95166 whole entry): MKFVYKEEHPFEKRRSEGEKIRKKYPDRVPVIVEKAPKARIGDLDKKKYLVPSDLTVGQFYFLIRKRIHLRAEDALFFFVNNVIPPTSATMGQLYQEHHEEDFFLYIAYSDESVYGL
Non-standard residues stand in square brackets, D forms with d. No end group written: not given here. pS = N[C@@H](COP(=O)(O)O)C(=O)O
measurement type: Kd (µM)

>>> quantitative_result("EALN[pS]GVEYYWDQLNET (limits counted from S1014 as the fifth letter; also called S1014-phosphorylated AMBRA1-LIR peptide; source: synthetic peptide, bought: GenScript) [AMBRA1-LIR peptide, S1014 phosphorylated (P1)]")
21
